Reference source: PubChem BioAssay

EXPERIMENT: antimalarial activity against Dd2 strain (AID 2302);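 note: 0% = DMSO untreated growth and 100% = chloroquine plus artemisinin killed control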
CONDITION_SET: P. falciparum Dd2 in RBCs, LDH growth readout, 72 h; at 2 µM
Calls of active or inactive are those of the source.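 Rule for the calls: active = growth inhibition above 50% at the single 2 µM test dose, taken to imply half-maximal potency below 2 µM; inactive = the rest.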
Labels: yes = active, no = inactive

[
  {
    "MOLECULE": "CC(C)(C)c1ccc(CNC(=O)/C=C/c2ccc(CNC3CCNCC3)cc2)cc1",
    "CLASS_NAME": "no"
  },
  {
    "MOLECULE": "O=C(Nc1cc(Cl)cc(Cl)c1)c1cc(Cl)c(=O)n(Cc2cccc(Cl)c2)c1",
    "CLASS_NAME": "yes"
  },
  {
    "MOLECULE": "Cc1cc(NC(=O)NCCN2CCC(NS(=O)(=O)c3ccc(Br)cc3)C2)c2ccccc2n1 (stereo not given)",
    "CLASS_NAME": "yes"
  },
  {
    "MOLECULE": "Cc1ccc(NC(=O)c2cc(S(=O)(=O)NC(C)(C)C)ccc2C)nc1",
    "CLASS_NAME": "yes"
  },
  {
    "MOLECULE": "O=S(=O)(Nc1cccc(CCN2CCC(N3CCCCC3)CC2)c1)c1ccc2c(c1)OCCO2",
    "CLASS_NAME": "no"
  },
  {
    "MOLECULE": "COc1ccc(F)cc1-c1ccc(C(=O)N2CCCN(c3ccc(C(F)(F)F)cn3)CC2)cc1",
    "CLASS_NAME": "yes"
  },
  {
    "MOLECULE": "COc1cc(Cc2cnc(N)nc2N)ccc1Oc1ccc(N)cc1",
    "CLASS_NAME": "no"
  },
  {
    "MOLECULE": "COc1cc2c(cc1C(F)(F)F)N(C(=O)Nc1cc(F)c(F)c(-c3cccnc3)c1)CC2",
    "CLASS_NAME": "no"
  },
  {
    "MOLECULE": "CC(=O)Nc1cccc(-c2cn(-c3ccc(OCc4cccc(F)c4)c(Cl)c3)c3ncncc23)c1",
    "CLASS_NAME": "yes"
  },
  {
    "MOLECULE": "CCC(C)(C)c1ccc2nc(N)nc(N)c2c1C",
    "CLASS_NAME": "yes"
  }
]

----------
EXPERIMENTAL_SYSTEM: L-lactate dehydrogenase (Plasmodium falciparum (isolate CDC / Honduras))
EXPERIMENT: PfLDH activity inhibition – cell lysate, 3D7 strain, counter-screen for P. falciparum growth inhibition project (AID 2304);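 note: 0% = vehicle and 100% = reference inhibitor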
CONDITION_SET: P. falciparum 3D7 crude extract, LDH APAD/NBT absorbance; at 2 µM; active compounds read high

[
  {
    "MOLECULE": "Cc1ccc(CNc2ccc3ncc(-c4cccc(C(=O)NCCN(C)C)c4)n3n2)c(C)c1",
    "EXPERIMENTAL_SYSTEM": "L-lactate dehydrogenase (Plasmodium falciparum (isolate CDC / Honduras))",
    "inhibition / %": -3
  },
  {
    "MOLECULE": "Fc1ccc2nc(-c3ccc(-c4ccc(CN5CCCCC5)cc4)s3)[nH]c2c1",
    "EXPERIMENTAL_SYSTEM": "L-lactate dehydrogenase (Plasmodium falciparum (isolate CDC / Honduras))",
    "inhibition / %": -2
  },
  {
    "MOLECULE": "O=C(/C=C/c1ccc(Cl)c(Cl)c1)NCCCCCCN1CCN(C(=O)Nc2cc(Cl)nc(Cl)c2)CC1",
    "EXPERIMENTAL_SYSTEM": "L-lactate dehydrogenase (Plasmodium falciparum (isolate CDC / Honduras))",
    "inhibition / %": -2
  },
  {
    "MOLECULE": "CC(NC(=O)c1cc(-c2ccccc2)nc2c1cnn2C(C)C)C1CC1 (configuration not stated)",
    "EXPERIMENTAL_SYSTEM": "L-lactate dehydrogenase (Plasmodium falciparum (isolate CDC / Honduras))",
    "inhibition / %": -2
  },
  {
    "MOLECULE": "CN(C)CCCOc1cccc(NC(=O)Nc2ccc(-c3ccccc3)cc2)c1",
    "EXPERIMENTAL_SYSTEM": "L-lactate dehydrogenase (Plasmodium falciparum (isolate CDC / Honduras))",
    "inhibition / %": -8
  },
  {
    "MOLECULE": "O=C(/C=C/c1ccc(C(F)(F)F)cc1)NCCCCCN1CCC(c2c[nH]c3ccccc23)CC1",
    "EXPERIMENTAL_SYSTEM": "L-lactate dehydrogenase (Plasmodium falciparum (isolate CDC / Honduras))",
    "inhibition / %": 1
  },
  {
    "MOLECULE": "Fc1ccc2nc(-c3ccc(-c4ccc(CN5CCN(c6cnccn6)CC5)cc4)s3)[nH]c2c1",
    "EXPERIMENTAL_SYSTEM": "L-lactate dehydrogenase (Plasmodium falciparum (isolate CDC / Honduras))",
    "inhibition / %": 5
  },
  {
    "MOLECULE": "O=C1C(c2ccccc2)=C(Nc2ccc(OC(F)(F)F)cc2)c2ccccc21",
    "EXPERIMENTAL_SYSTEM": "L-lactate dehydrogenase (Plasmodium falciparum (isolate CDC / Honduras))",
    "inhibition / %": 1
  },
  {
    "MOLECULE": "CO/C(=C\\C=C\\c1cc2cc(Cl)c(Cl)cc2[nH]1)C(=O)NCCCN1CCN(c2cccc(Cl)c2)CC1",
    "EXPERIMENTAL_SYSTEM": "L-lactate dehydrogenase (Plasmodium falciparum (isolate CDC / Honduras))",
    "inhibition / %": 3
  },
  {
    "MOLECULE": "Cn1ccnc1CNC(=O)c1ccc(-c2cccc(-c3nc4ccc(C(F)(F)F)cc4[nH]3)c2)cc1",
    "EXPERIMENTAL_SYSTEM": "L-lactate dehydrogenase (Plasmodium falciparum (isolate CDC / Honduras))",
    "inhibition / %": 3
  },
  {
    "MOLECULE": "CCOC(=O)c1ccc(-n2c(C)cc(C=C3SC(=Nc4ccccc4)N(C4CCCC4)C3=O)c2C)cc1",
    "EXPERIMENTAL_SYSTEM": "L-lactate dehydrogenase (Plasmodium falciparum (isolate CDC / Honduras))",
    "inhibition / %": 0
  },
  {
    "MOLECULE": "CC1(C)CCC(C)(C)c2c1ccc(C1CCN(CCCCNC(=O)c3ccc(-c4ccc(Cl)cc4)cc3)CC1)c2O",
    "EXPERIMENTAL_SYSTEM": "L-lactate dehydrogenase (Plasmodium falciparum (isolate CDC / Honduras))",
    "inhibition / %": -2
  },
  {
    "MOLECULE": "CCOc1ccc(-c2nonc2NC(=O)c2ccco2)cc1OCC",
    "EXPERIMENTAL_SYSTEM": "L-lactate dehydrogenase (Plasmodium falciparum (isolate CDC / Honduras))",
    "inhibition / %": -1
  },
  {
    "MOLECULE": "Cc1cccc2[nH]c(-c3cccc(-c4ccc(C(=O)NCc5nccn5C)cc4)c3)nc12",
    "EXPERIMENTAL_SYSTEM": "L-lactate dehydrogenase (Plasmodium falciparum (isolate CDC / Honduras))",
    "inhibition / %": 1
  },
  {
    "MOLECULE": "O=C(O)Cc1ccc(-c2c[nH]c3ncc(-c4cccc5ncccc45)cc23)cc1",
    "EXPERIMENTAL_SYSTEM": "L-lactate dehydrogenase (Plasmodium falciparum (isolate CDC / Honduras))",
    "inhibition / %": 1
  },
  {
    "MOLECULE": "CC(C)c1ccc(NC(=O)Nc2ccc(Cn3ncc(N4CCCNCC4)c(Cl)c3=O)cc2)cc1",
    "EXPERIMENTAL_SYSTEM": "L-lactate dehydrogenase (Plasmodium falciparum (isolate CDC / Honduras))",
    "inhibition / %": 2
  },
  {
    "MOLECULE": "C=CCOC(=O)N1CCC(CNCc2ccc(-c3cccc(-c4nc5ccc(F)cc5[nH]4)c3)cc2)C1 (configuration not stated)",
    "EXPERIMENTAL_SYSTEM": "L-lactate dehydrogenase (Plasmodium falciparum (isolate CDC / Honduras))",
    "inhibition / %": -2
  },
  {
    "MOLECULE": "c1ccc(-c2ccc(CNCc3ccc(-c4cccc(-c5nc6ccccc6[nH]5)c4)cc3)s2)nc1",
    "EXPERIMENTAL_SYSTEM": "L-lactate dehydrogenase (Plasmodium falciparum (isolate CDC / Honduras))",
    "inhibition / %": -1
  },
  {
    "MOLECULE": "Cc1cccc2[nH]c(-c3cccc(-c4cccc(CNC(C)C)c4)c3)nc12",
    "EXPERIMENTAL_SYSTEM": "L-lactate dehydrogenase (Plasmodium falciparum (isolate CDC / Honduras))",
    "inhibition / %": -4
  },
  {
    "MOLECULE": "CN1CCC(Oc2ccc(Nc3nccc(NCC(O)c4ccccc4)n3)cc2Cl)CC1 (configuration not stated)",
    "EXPERIMENTAL_SYSTEM": "L-lactate dehydrogenase (Plasmodium falciparum (isolate CDC / Honduras))",
    "inhibition / %": 0
  },
  {
    "MOLECULE": "CS(=O)(=O)c1cccc(-c2cnc3[nH]cc(-c4ccc(CCC(=O)O)cc4)c3c2)c1",
    "EXPERIMENTAL_SYSTEM": "L-lactate dehydrogenase (Plasmodium falciparum (isolate CDC / Honduras))",
    "inhibition / %": -6
  },
  {
    "MOLECULE": "O=C(/C=C/c1ccc(Cl)c(Cl)c1)N1CCC(CN2CCC(Cc3cc4ccccc4[nH]3)CC2)CC1",
    "EXPERIMENTAL_SYSTEM": "L-lactate dehydrogenase (Plasmodium falciparum (isolate CDC / Honduras))",
    "inhibition / %": -3
  },
  {
    "MOLECULE": "Cc1nnsc1C(=O)Nc1cccc(-c2ccc(-c3nc4ccccc4[nH]3)cc2)c1",
    "EXPERIMENTAL_SYSTEM": "L-lactate dehydrogenase (Plasmodium falciparum (isolate CDC / Honduras))",
    "inhibition / %": 0
  },
  {
    "MOLECULE": "O=C(Nc1ccc2c(c1)CCC2)N[C@H]1CCN(Cc2ccc(OCCCN3CCCCC3)cc2)C1",
    "EXPERIMENTAL_SYSTEM": "L-lactate dehydrogenase (Plasmodium falciparum (isolate CDC / Honduras))",
    "inhibition / %": -2
  },
  {
    "MOLECULE": "O=C(N[C@H]1CCN(CCc2ccc(O[C@H]3CCNC3)c(Cl)c2)C1)c1ccc(Cl)c(Cl)c1",
    "EXPERIMENTAL_SYSTEM": "L-lactate dehydrogenase (Plasmodium falciparum (isolate CDC / Honduras))",
    "inhibition / %": 2
  },
  {
    "MOLECULE": "COc1cc(F)c2ncc(F)c(CCN3C[C@H](CNCc4ccc5c(n4)NC(=O)CS5)[C@H](O)C3)c2c1",
    "EXPERIMENTAL_SYSTEM": "L-lactate dehydrogenase (Plasmodium falciparum (isolate CDC / Honduras))",
    "inhibition / %": 2
  },
  {
    "MOLECULE": "CC(C)S(=O)(=O)N1CCN(Cc2ccc3c(c2)nc(NC(=O)c2ccsc2)n3C[C@H](O)c2ccccc2)CC1",
    "EXPERIMENTAL_SYSTEM": "L-lactate dehydrogenase (Plasmodium falciparum (isolate CDC / Honduras))",
    "inhibition / %": 0
  },
  {
    "MOLECULE": "O=C(O)CCCN1CCCC(=C(c2ccccc2)c2ccccc2)C1",
    "EXPERIMENTAL_SYSTEM": "L-lactate dehydrogenase (Plasmodium falciparum (isolate CDC / Honduras))",
    "inhibition / %": 0
  },
  {
    "MOLECULE": "C=CCOc1ccc(C(=O)Nc2nonc2-c2ccc(OC)c(OC)c2)cc1",
    "EXPERIMENTAL_SYSTEM": "L-lactate dehydrogenase (Plasmodium falciparum (isolate CDC / Honduras))",
    "inhibition / %": -5
  },
  {
    "MOLECULE": "O=S(=O)(Nc1cc2c(cc1OCc1ccccc1)CCN(C1CCC1)CC2)c1ccc(-c2ccc(Cl)cc2)cc1",
    "EXPERIMENTAL_SYSTEM": "L-lactate dehydrogenase (Plasmodium falciparum (isolate CDC / Honduras))",
    "inhibition / %": 0
  },
  {
    "MOLECULE": "Cc1nc(-c2cccc3c(NC(=O)N4CCc5cc6nccc(N7CCN(C)CC7)c6cc54)cccc23)no1",
    "EXPERIMENTAL_SYSTEM": "L-lactate dehydrogenase (Plasmodium falciparum (isolate CDC / Honduras))",
    "inhibition / %": 2
  },
  {
    "MOLECULE": "O=C(Nc1ccc(C(F)(F)F)cc1)c1cc(Br)cnc1NCCCn1ccnc1",
    "EXPERIMENTAL_SYSTEM": "L-lactate dehydrogenase (Plasmodium falciparum (isolate CDC / Honduras))",
    "inhibition / %": 2
  },
  {
    "MOLECULE": "COc1ccccc1Nc1nc(NC2CCN(C)CC2)cc(-c2cccc(C(F)(F)F)c2)n1",
    "EXPERIMENTAL_SYSTEM": "L-lactate dehydrogenase (Plasmodium falciparum (isolate CDC / Honduras))",
    "inhibition / %": -10
  },
  {
    "MOLECULE": "N#Cc1ccc(NC(=NCCc2c[nH]c3ccccc23)Nc2ccc(-c3ccccc3)cc2)c(O)c1",
    "EXPERIMENTAL_SYSTEM": "L-lactate dehydrogenase (Plasmodium falciparum (isolate CDC / Honduras))",
    "inhibition / %": 6
  },
  {
    "MOLECULE": "CCCCC(CC)NC(=O)[C@H]1CNCCN1C(=O)CCCc1ccccc1 (some centres not stated)",
    "EXPERIMENTAL_SYSTEM": "L-lactate dehydrogenase (Plasmodium falciparum (isolate CDC / Honduras))",
    "inhibition / %": 1
  },
  {
    "MOLECULE": "CO/C(=C\\C=C\\c1cc2cc(Cl)c(Cl)cc2[nH]1)C(=O)NCCN1CCCCC1",
    "EXPERIMENTAL_SYSTEM": "L-lactate dehydrogenase (Plasmodium falciparum (isolate CDC / Honduras))",
    "inhibition / %": 1
  },
  {
    "MOLECULE": "C[C@H](NC(=O)c1c(CN2CCC(N3CCCCC3=O)CC2)c(-c2cccs2)nc2ccccc12)C1CCCCC1",
    "EXPERIMENTAL_SYSTEM": "L-lactate dehydrogenase (Plasmodium falciparum (isolate CDC / Honduras))",
    "inhibition / %": 2
  }
]
